- test_target: BoNT/A light chain (recombinant) (Clostridium botulinum, UniProt P0DPI0 1-448)
- Sequence (P0DPI0 1-448 limits assumed): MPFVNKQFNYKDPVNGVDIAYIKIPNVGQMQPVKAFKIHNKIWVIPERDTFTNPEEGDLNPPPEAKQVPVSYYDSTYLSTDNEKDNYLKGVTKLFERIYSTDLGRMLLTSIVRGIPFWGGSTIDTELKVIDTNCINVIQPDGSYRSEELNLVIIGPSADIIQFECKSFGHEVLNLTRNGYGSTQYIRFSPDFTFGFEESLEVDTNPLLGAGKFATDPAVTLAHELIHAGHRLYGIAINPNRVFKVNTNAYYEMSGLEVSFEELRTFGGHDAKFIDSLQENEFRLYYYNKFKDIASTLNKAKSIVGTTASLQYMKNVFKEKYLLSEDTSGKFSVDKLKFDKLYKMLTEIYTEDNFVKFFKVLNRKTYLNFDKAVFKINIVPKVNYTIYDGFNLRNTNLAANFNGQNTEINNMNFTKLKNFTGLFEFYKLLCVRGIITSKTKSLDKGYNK
- assay: yeast scFv FACS
Assign pKd to each entry below.
API: returns pKd as number; meaning -log10 of concentration in mol/L.

Qu. Need pKd of 1C7 scFv (scFv, mouse) scFv: EVQLQQSGAELVRPGASVKMSCKASGYTFTSYNMHWVKQTPRQGLEWIGAIYPGNGDTSYNQKFKGKATLTVDKSSSTAYMQLSSLTSEDSAVYFCARTAGFYFDYWGQGTTLTVSSVDLKSGGSTSGSGKPGSGEGSSGSARDIVMTQSPAIMSASPGEKVTMTCSASSSVSYMYWYQQKPGSSPRLLIYYTSNLAPGVPARFSGSGSGNSYSLTISSMEGEDAATYYCQQFTSSPYTFGGGTKLEIK , thanks.
Ans. 7.45

Qu. Need pKd of 10B12 scFv (scFv, mouse) scFv: EVQLQQSGAELVRPGTSVKLSCKSSGYTFTSDWMHWVIQRPGQGLEWIGVIDPSDSYTNYNQKFKGKATLTVDTSSSTAYMHLSSLTSEDSAVYYCARREGHYYGKAMDYWGQGTSVTVSSVDLKSGGSTSGSGKPGSGEGSSGSARDIVMSQSPASLAVSLGQRATISCRASESVDYDGDSYMNWYQQKPGQPPKLLIYAASNLESGIPARFSGSGSGTDFTLNIHPVEEEDAATYYCLQSNEAPWTFGGGTKLEIK , thanks.
Ans. 9.28

Qu. Need pKd of 11D8 scFv (scFv, mouse) scFv: EVQLQQSGAELVRPGTSVKLSCKASGYTFTSYWMHWVKQRPGQGLEWIGVIDPSDSYTNYNQKFKGKATLTVDTSSSTAYMQLSSLASEDSAVYYCARYPGNRAMDYWGQGTSVTVSSVDLKSGGSTSGSGKPGSGEGSSGSARDIVLTQSPASLAVSLGQRATISCRASESVDYDGDSYMNWYQQKPGQPPKLLIYAASNLESGIPARFSGSGSGTDFTLNIHPVEEEDAATYYCLQSNEAPWTFGGGTKLEIK , thanks.
Ans. 9.66
